- Tested on: Plasmodium berghei
- assay.info: Screen against P. berghei liver stage (PbLuc), transformed with Luciferase, at 2uM
- Type: functional, HepG2
- assay.setup: tested at 2 uM
In all, about 68,000 compounds went through this assay and about 2,700 (4%) showed an effect of 50% or more. Many of the other results were omitted from the sample, so strong results are more common in it than they were.
Classify: fulfilled when INHIBITION is strictly less than 30%; not fulfilled when INHIBITION is not.

## Input Given Cc1cc(CC(C)NC(=O)Cc2cc(F)ccc2C)[nH]n1 (configuration not stated) , is recorded INHIBITION strictly lower than 30%?
## Output fulfilled

## Input Confirm or reject: INHIBITION of Cc1cn(CCn2ccnc2-c2sccc2C)nn1 lies strictly below 30%
## Output not fulfilled

## Input Does the reported INHIBITION of the following molecule sit strictly below 30%? COC(=O)NCCC(=O)NC(C)Cc1ccccc1Br (configuration not stated)
## Output not fulfilled

## Input Regarding CCNC(=O)[C@@H]1C[C@H](NC(=O)c2ccc(C)s2)CN1Cc1ccc(C)o1 , kindly confirm whether its INHIBITION is beneath 30%.
## Output fulfilled

## Input Is the reported INHIBITION for Cn1nnc2c1C(COCC1CC1)CN(C(=O)C1=CCCC1)C2 (configuration not stated) strictly below 30%?
## Output fulfilled

## Input Would you kindly verify if INHIBITION of O=C(CCc1ccccc1F)NS(=O)(=O)c1ccc2c(c1)OCCO2 is strictly less than 30%?
## Output fulfilled
